- Test system: genotype 1b (Con 1) subgenomic replicon cell line
- measurement_description: HCV replicon assay, genotype 1b (Renilla luciferase)
- Format: cell-based
- condition_info: Hepatitis C virus; genotype 1b replicon, 72 hours; read-out: genotype 1b EC50 (μM) range
The following compounds are listed with their measured EC50 values.

compound	experimental_value
CNC(=O)c1c2cc(C3CC3)c(N(CCC3COC3)S(C)(=O)=O)cc2nn1-c1ccc(C)cn1	< 0.1 µM
CNC(=O)c1c2cc(C3CC3)c(N(CCC3CN(C(=O)OC(C)(C)C)C3)S(C)(=O)=O)cc2nn1-c1ccc(C)cn1	< 0.1 µM
CNC(=O)c1c2cc(C3CC3)c(N(CCC3(C)COC3)S(C)(=O)=O)cc2nn1-c1ccc(C)cn1	< 0.1 µM

Exercise: I would be grateful if you could share the reported EC50 for CNC(=O)c1c2cc(C3CC3)c(N(C)S(C)(=O)=O)cc2nn1-c1ccc(Cl)cn1 .
Solution: < 0.1 µM
